src = patent US20260098080A1

So I've got a bunch of binders here, and I need their Kd values.
- TESTED_SYSTEM: T1, rat MASP-2cf CCP1-CCP2-SP (rat, UniProt Q9JJS8 298-685)
- T1 construct: range 298-685; Mw 42309 Da; also called rat MASP-2 catalytic fragment
- T1 sequence (Q9JJS8 other isoform, or with tags, fused parts or gaps limits assumed, form in doubt): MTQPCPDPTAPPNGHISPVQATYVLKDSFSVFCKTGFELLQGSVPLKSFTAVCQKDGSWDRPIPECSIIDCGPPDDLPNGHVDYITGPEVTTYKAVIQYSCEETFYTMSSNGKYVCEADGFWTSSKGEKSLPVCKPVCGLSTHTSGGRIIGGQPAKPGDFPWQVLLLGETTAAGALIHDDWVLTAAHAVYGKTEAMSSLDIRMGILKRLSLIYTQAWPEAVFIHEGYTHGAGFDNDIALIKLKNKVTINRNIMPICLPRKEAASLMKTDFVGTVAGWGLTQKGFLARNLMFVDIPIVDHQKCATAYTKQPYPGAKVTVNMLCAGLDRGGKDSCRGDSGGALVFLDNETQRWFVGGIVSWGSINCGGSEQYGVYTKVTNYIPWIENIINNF
- RUN_DESCRIPTION: SPR, target immobilised
Where no end group is shown, it is not given here.
Give bare numbers, in nM.

Q: Give reported Kd value for EVO22a (designed binder, Modified TFPI-D2 Kunitz domain; made as m1) KPDFCFLENDPGPCRAAKRRYFYNNQTKQCERFYYGGCLGNMNNFVTLEECKNICEDG
A: 0.192

Q: Look up and state reported Kd for EVO2 (designed binder, not fully specified; ends and bridges not checked, Modified Kunitz domain TFPI-D2 of human TFPI-1; recombinant from E. coli, freed from a His6-S100A4 fusion by TEV protease; also called TFMI-2b) KPDFCFLEEDPGPCRAVKRRYFYNNQTKQCERFKYGGCLGNMNNFETLEECKNICEDG
A: 3.63

Q: Output Kd of EVO214 (designed binder, not fully specified; ends and bridges not checked, Modified TFPI-D2 Kunitz domain; made as m1) KPDFCFLENDPGPCRALKLRYFYNNQTKQCERFGYGGCLGNMNNFVTLEECKNICEDG
A: 0.117

Then this binder:
Q: Return Kd (reported value) for this binder: EVO21a (designed binder, not fully specified; cysteine pairing not given here, Modified TFPI-D2 Kunitz domain; made as m1) KPDFCFLENDPGPCRAVKRRYFYNNQTKQCERFGYGGCLGNMNNFVTLEECKNICEDG
A: 2.02
